Origin of the recorded values: patent US20150374676A1

# protocol-description: Multiple-dose escalation, steady state pharmacokinetics in healthy volunteers
# Type: in vivo, human
# condition-label: human, plasma, oral, 200 mg; 100 mg dosage as free base equivalent, steady state after once daily single doses for 21 days; read-out: AUCτ,ss
result-type: AUC (µg·h/mL)
All answers are understood in µg·h/mL, so give the number only.

### Prompt Value lookup for AUC; key = CS(=O)(=O)O.Cc1nc(N(C)C(=O)Cc2ccc(-c3ccccn3)cc2)sc1S(N)(=O)=O [mono mesylate monohydrate salt]
### Response 168

###

# protocol-description: Single-dose escalation pharmacokinetics in volunteers
# Type: in vivo, human
# condition-label: male, plasma; single oral dose 80 mg free base equivalent, males; human; median, n = 6; read-out: tmax
result-type: Tmax (h)
All answers are understood in h, so give the number only.

### Prompt Value lookup for Tmax; key = CS(=O)(=O)O.Cc1nc(N(C)C(=O)Cc2ccc(-c3ccccn3)cc2)sc1S(N)(=O)=O [mono mesylate monohydrate salt]
### Response 2.5
